target: Cannabinoid receptor 1 (Rattus norvegicus)
Sequence (P20272 whole entry): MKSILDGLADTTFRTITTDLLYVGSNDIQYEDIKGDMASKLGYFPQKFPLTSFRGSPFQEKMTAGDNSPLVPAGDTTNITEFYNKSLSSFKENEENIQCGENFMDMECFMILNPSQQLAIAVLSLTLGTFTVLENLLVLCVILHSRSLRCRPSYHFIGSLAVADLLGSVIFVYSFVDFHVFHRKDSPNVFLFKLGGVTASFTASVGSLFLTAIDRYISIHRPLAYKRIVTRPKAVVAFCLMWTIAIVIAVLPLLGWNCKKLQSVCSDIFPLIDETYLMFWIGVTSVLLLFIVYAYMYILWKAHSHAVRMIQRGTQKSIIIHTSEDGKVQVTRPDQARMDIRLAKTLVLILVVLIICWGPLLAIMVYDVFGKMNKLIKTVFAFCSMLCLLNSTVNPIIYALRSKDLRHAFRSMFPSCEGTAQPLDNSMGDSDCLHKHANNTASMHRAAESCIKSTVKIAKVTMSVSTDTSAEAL
Give measured Ki for each item. Keep answers brief.

Consider the reported Ki for these compounds:
- compound: "CC(C)(C)c1ccc([C@H]2CCC[C@@H](O)C2)cc1 (relative stereo)"
  Ki: "> 10 µM"
- compound: "CCC(C)(C)c1ccc([C@@H]2CCC[C@@H](O)C2)cc1 (relative stereo)"
  Ki: "> 10 µM"
- compound: "CCCC(C)(C)c1ccc([C@H]2CCC[C@@H](O)C2)cc1 (relative stereo)"
  Ki: "> 10 µM"

Fill in Ki for each of the 3 compounds listed.
1. CC(C)(C)c1ccc([C@@H]2CCC[C@@H](O)C2)cc1 (relative stereo)
2. CCC(C)(C)c1ccc([C@H]2CCC[C@@H](O)C2)cc1 (relative stereo)
3. CCCCC(C)(C)c1ccc([C@H]2CCC[C@@H](O)C2)cc1 (relative stereo)

> 10 µM
> 10 µM
> 10 µM
